Every entry's value here was drawn from ChEMBL document CHEMBL6153050.

Test system: Quadruplex DNA
Conditions: time 10.0 min
RECORDED METRIC: deltaTm1/2 (°C)

1: COc1c(-c2ccc3cc(NS(C)(=O)=O)ccc3c2)cc(-n2ccc(=O)[nH]c2=O)cc1C(C)(C)C
2: COc1ccc(-c2cc(=O)c3c(OC)c(OC)c(OC)cc3o2)cc1OC
Problem: Between 1 and 2 , which one shows the smaller deltaTm1/2 number? Identify your pick by its label.
Result: 1

a: CN(C)CCCOc1nn(Cc2ccccc2)c2ccccc12
b: CCc1cc2c(cc1CC)CC(NC[C@H](O)c1ccc(O)c3[nH]c(=O)ccc13)C2 [INDACATEROL]
Problem: Between a and b , which one shows the smaller deltaTm1/2 number? Identify your pick by its label.
Result: b
(b: 1.5 °C, a: 2.5 °C)

P: CN1CCC[C@@H]1Cc1c[nH]c2ccc(CCS(=O)(=O)c3ccccc3)cc12
Q: COc1cc(NC(C)CCCN)c2ncccc2c1 (configuration not stated)
Problem: Kindly identify which of P and Q has the larger recorded deltaTm1/2 value. Identify your pick by its label.
Result: P
(P: 0.6 °C, Q: 0.4 °C)

* * *

Test system: Quadruplex RNA
Settings: time 10.0 min
RECORDED METRIC: deltaTm1/2

{"COMPOUND": "CCN(CC)CCCC(C)Nc1c2ccc(Cl)cc2nc2ccc(OC)cc12 (stereo not drawn)", "TARGET OR TEST SYSTEM": "Quadruplex RNA", "RECORDED METRIC": "deltaTm1/2", "VAL": "> 20 °C"}
{"COMPOUND": "CCc1c2c(nc3ccc(OC(=O)N4CCC(N5CCCCC5)CC4)cc13)-c1cc3c(c(=O)n1C2)COC(=O)[C@]3(O)CC", "TARGET OR TEST SYSTEM": "Quadruplex RNA", "RECORDED METRIC": "deltaTm1/2", "VAL": "> 20 °C"}

Problem: Give the observed deltaTm1/2 of CCCCOc1cc(C(=O)NCCN(CC)CC)c2ccccc2n1 for Quadruplex RNA.
Result: 3.2 °C
